Cited source: patent US7160881B2

Experiment: Pharmacokinetics after single oral administration to fed male beagle dogs (plasma concentrations by LC-MS, non-compartmental analysis)
Format: in vivo
Settings: male, beagle, dog, plasma, po, 2 mg/kg, dog Lars; single oral 2 mg/kg, fed male beagle dog, cross-over; granulate with 20% SDS in gelatine capsules; read-out: AUC(0–24 h)
Method: Four male beagle dogs (age 5 to 6 years, body weight 11 to 14 kg) received single oral doses of 2 mg/kg of 2-(3,5-bis-trifluoromethyl-phenyl)-N-[6-(1,1-dioxo-1λ^6-thiomorpholin-4-yl)-4-(4-fluoro-2-methyl-phenyl)-pyridin-3-yl]-N-methyl-isobutyramide form A and form B (cross-over study design). The formulation was a granulate of the finely milled compound with 20% sodium dodecyl sulfate (SDS) in gelatine capsules. […]
MEASUREMENT_KIND: AUC(0-t)

Check the records and state AUC(0-t) for Cc1cc(F)ccc1-c1cc(N2CCS(=O)(=O)CC2)ncc1N(C)C(=O)C(C)(C)c1cc(C(F)(F)F)cc(C(F)(F)F)c1 [Form A]
2520 ng·h/mL
